# credit: ChEMBL document CHEMBL4308915

# Test system: PBL
# method_summary: Cytotoxicity against acute leukemia patient-derived PBL cells assessed as reduction in cell viability after 24 hrs
# Format: functional, cell-based
# settings: Homo sapiens
outcome_measure: IC50

Q: Can you share its IC50? I mean this compound: COc1cc(C2=NN(C(C)=O)C(c3ccc4ccccc4c3)C2)cc(OC)c1OC (configuration not stated)
Result: 27.7 to 139 µM

Next:
Q: Can you share its IC50? I mean this compound: COc1cc(C2=NN(C(C)=O)C(c3ccc(Br)cc3)C2)cc(OC)c1OC (configuration not stated)
Result: 11.8 to 142 µM

----------
# method_summary: Selectivity index, ratio of IC50 for human PBMC to IC50 for human Jurkat cells after 24 hrs
# Assay type: toxicity
# settings: PBMC versus Jurkat cells, read-out: Ratio IC50
Measured selectivity ratio at 24 h, listed per entry for reference.
Keep the answer to the number alone.

Q: Can you share its selectivity ratio at 24 h? I mean this compound: COc1cc(C2=NN(C(C)=O)C(c3ccc(Br)cc3)C2)cc(OC)c1OC (configuration not stated)
Result: 10.6

We now examine a further compound.
Q: Can you share its selectivity ratio at 24 h? I mean this compound: COc1cc(C2=NN(C(C)=O)C(c3ccc4ccccc4c3)C2)cc(OC)c1OC (configuration not stated)
Result: 14.7
